Here the recorded viability, T/C is given for each entry.
Test system: K12877-001-R-J1-PDC complex spheroid viability
Test: Anticancer human tumor K12877-001-R-J1-PDC patient-derived lung adenocarcinoma cell line growth inhibition [RAS]
Settings: second compound 0.003 µM; first compound 1 µM; stronger effect = lower value

molecule	system	viability, T/C (%)
O=C(c1ccc(F)c(F)c1Nc1ccc(I)cc1F)N1CC(O)([C@@H]2CCCCN2)C1 + CCn1c(-c2cc(N3CCN(C)CC3)cnc2C(C)OC)c2c3cc(ccc31)-c1csc(n1)CC(NC(=O)C1CC1C)C(=O)N1CCCC(N1)C(=O)OCC(C)(C)C2	K12877-001-R-J1-PDC complex spheroid viability	60.5
Cc1nc(N2CCC3(CC2)COC(C)C3N)c(CO)nc1Sc1ccnc(N)c1Cl (centres undefined) + CCn1c(-c2cc(N3CCN(C)CC3)cnc2C(C)OC)c2c3cc(ccc31)-c1csc(n1)CC(NC(=O)C1CC1C)C(=O)N1CCCC(N1)C(=O)OCC(C)(C)C2	K12877-001-R-J1-PDC complex spheroid viability	63.4
C=CC(=O)Nc1cc(Nc2nccc(-c3cn(C)c4ccccc34)n2)c(OC)cc1N(C)CCN(C)C + CCn1c(-c2cccnc2C(C)OC)c2c3cc(ccc31)N1CCOC(CC(NC(=O)C(C(C)C)N(C)C(=O)C3(F)CCN(C(=O)C#CC(C)(C)N(C)C)CC3)C(=O)N3CCCC(N3)C(=O)OCC(C)(C)C2)C1	K12877-001-R-J1-PDC complex spheroid viability	70.3
CC(Nc1ccc2c(c1)OCCn1cc(N3C(=O)OCC3C(F)F)nc1-2)C(N)=O (centres undefined) + CCn1c(-c2cccnc2C(C)OC)c2c3cc(ccc31)N1CCOC(CC(NC(=O)C(C(C)C)N(C)C(=O)C3(F)CCN(C(=O)C#CC(C)(C)N(C)C)CC3)C(=O)N3CCCC(N3)C(=O)OCC(C)(C)C2)C1	K12877-001-R-J1-PDC complex spheroid viability	40.3

###

Tested on: K12877-001-R-J1-PDC complex spheroid viability
Assay: Anticancer human tumor K12877-001-R-J1-PDC cell line growth inhibition [RAS];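 further: spheroids exposed to agents for one week before readout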;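 on viability, T/C: tumour cells co-cultured with HUVEC and mesenchymal stem cells in spheroids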
Details: second compound 0.1 µM; first compound 3.16 µM; stronger effect = lower value

compound	system	output_unit	viability, T/C
CC1(O)CCCC1n1c(=O)c(C(F)F)cc2cnc(NC3CCN(S(C)(=O)=O)CC3)nc21 (stereo not drawn) + C=CC(=O)N1CCN(c2nc(OCC3CCCN3C)nc3c(F)c(-c4nc(N)cc(C)c4C(F)(F)F)c(Cl)cc23)C(C)C1	K12877-001-R-J1-PDC complex spheroid viability	%	48.4
CC(C)NCC(C(=O)N1CCN(c2ncnc3c2C(C)CC3O)CC1)c1ccc(Cl)cc1 (stereo not drawn) + C=CC(=O)N1CCN(c2nc(OCC3CCCN3C)nc3c(F)c(-c4nc(N)cc(C)c4C(F)(F)F)c(Cl)cc23)C(C)C1	K12877-001-R-J1-PDC complex spheroid viability	%	20.2
CC(C)NCC(C(=O)N1CCN(c2ncnc3c2C(C)CC3O)CC1)c1ccc(Cl)cc1 (stereo not drawn) + C#Cc1c(F)ccc2cc(O)cc(-c3ncc4c(N5CC6CCC(C5)N6)nc(OCC56CCCN5CC(F)C6)nc4c3F)c12	K12877-001-R-J1-PDC complex spheroid viability	%	58.8

###

System: K12877-001-R-J1-PDC complex spheroid viability
Assay: Anticancer human tumor K12877-001-R-J1-PDC cell line growth inhibition [RAS]; active = viability on the fitted dose curve at most 10% of control; inactive = the rest;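 further: spheroids exposed to agents for one week before readout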
Conditions: second compound 0.00949 µM; first compound 0.03 µM
Possible outcomes: T for active, F for inactive

compound	system	cat
CC1(C)CCC(Nc2ncc(C(F)(F)F)c(-c3c[nH]c4c(P(C)(C)=O)c(C#N)ccc34)n2)CN1 (centres undefined) + CCn1c(-c2cccnc2C(C)OC)c2c3cc(ccc31)N1CCOC(CC(NC(=O)C(C(C)C)N(C)C(=O)C3(F)CCN(C(=O)C#CC(C)(C)N(C)C)CC3)C(=O)N3CCCC(N3)C(=O)OCC(C)(C)C2)C1	K12877-001-R-J1-PDC complex spheroid viability	F
CC1(C)CCC(Nc2ncc(C(F)(F)F)c(-c3c[nH]c4c(P(C)(C)=O)c(C#N)ccc34)n2)CN1 (centres undefined) + CCn1c(-c2cc(N3CCN(C)CC3)cnc2C(C)OC)c2c3cc(ccc31)-c1csc(n1)CC(NC(=O)C1CC1C)C(=O)N1CCCC(N1)C(=O)OCC(C)(C)C2	K12877-001-R-J1-PDC complex spheroid viability	F
CCc1c2c(nc3ccc(O)cc13)-c1cc3c(c(=O)n1C2)COC(=O)[C@]3(O)CC + CCn1c(-c2cccnc2C(C)OC)c2c3cc(ccc31)N1CCOC(CC(NC(=O)C(C(C)C)N(C)C(=O)C3(F)CCN(C(=O)C#CC(C)(C)N(C)C)CC3)C(=O)N3CCCC(N3)C(=O)OCC(C)(C)C2)C1	K12877-001-R-J1-PDC complex spheroid viability	T
CCc1c2c(nc3ccc(O)cc13)-c1cc3c(c(=O)n1C2)COC(=O)[C@]3(O)CC + CCn1c(-c2cc(N3CCN(C)CC3)cnc2C(C)OC)c2c3cc(ccc31)-c1csc(n1)CC(NC(=O)C1CC1C)C(=O)N1CCCC(N1)C(=O)OCC(C)(C)C2	K12877-001-R-J1-PDC complex spheroid viability	T

###

Test system: K12877-001-R-J1-PDC complex spheroid viability
Test: Anticancer human tumor K12877-001-R-J1-PDC cell line growth inhibition [RAS];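 further: spheroids exposed to agents for one week before readout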
Conditions: curve of first compound; second compound 0.00949 µM
pIC50: −log10 of the molar value.

compound	result_qualifier	pIC50
CC(=O)OC12COC1CC(O)C1(C)C(=O)C(O)C3=C(C)C(OC(=O)C(O)C(NC(=O)OC(C)(C)C)c4ccccc4)CC(O)(C(OC(=O)c4ccccc4)C21)C3(C)C (stereo not drawn) + CCn1c(-c2cc(N3CCN(C)CC3)cnc2C(C)OC)c2c3cc(ccc31)-c1csc(n1)CC(NC(=O)C1CC1C)C(=O)N1CCCC(N1)C(=O)OCC(C)(C)C2	>	7.50
CC1(O)CCCC1n1c(=O)c(C(F)F)cc2cnc(NC3CCN(S(C)(=O)=O)CC3)nc21 (stereo not drawn) + CCn1c(-c2cccnc2C(C)OC)c2c3cc(ccc31)N1CCOC(CC(NC(=O)C(C(C)C)N(C)C(=O)C3(F)CCN(C(=O)C#CC(C)(C)N(C)C)CC3)C(=O)N3CCCC(N3)C(=O)OCC(C)(C)C2)C1	=	6.87
CCC(CC)c1cc(NC2CCC(N)C2)n2nccc2n1 (stereo not drawn) + CCn1c(-c2cc(N3CCN(C)CC3)cnc2C(C)OC)c2c3cc(ccc31)-c1csc(n1)CC(NC(=O)C1CC1C)C(=O)N1CCCC(N1)C(=O)OCC(C)(C)C2	=	5.86
Nc1ccn(C2OC(CO)C(O)C2(F)F)c(=O)n1 (stereo not drawn) + CCn1c(-c2cc(N3CCN(C)CC3)cnc2C(C)OC)c2c3cc(ccc31)-c1csc(n1)CC(NC(=O)C1CC1C)C(=O)N1CCCC(N1)C(=O)OCC(C)(C)C2	=	7.94
CCc1c2c(nc3ccc(O)cc13)-c1cc3c(c(=O)n1C2)COC(=O)[C@]3(O)CC + CCn1c(-c2cc(N3CCN(C)CC3)cnc2C(C)OC)c2c3cc(ccc31)-c1csc(n1)CC(NC(=O)C1CC1C)C(=O)N1CCCC(N1)C(=O)OCC(C)(C)C2	=	8.41
CCN1CCN(Cc2ccc(Nc3ncc(F)c(-c4cc(F)c5nc(C)n(C(C)C)c5c4)n3)nc2)CC1 + CCn1c(-c2cc(N3CCN(C)CC3)cnc2C(C)OC)c2c3cc(ccc31)-c1csc(n1)CC(NC(=O)C1CC1C)C(=O)N1CCCC(N1)C(=O)OCC(C)(C)C2	=	6.24
C=CC(=O)Nc1cc(Nc2nccc(-c3cn(C)c4ccccc34)n2)c(OC)cc1N(C)CCN(C)C + CCn1c(-c2cccnc2C(C)OC)c2c3cc(ccc31)N1CCOC(CC(NC(=O)C(C(C)C)N(C)C(=O)C3(F)CCN(C(=O)C#CC(C)(C)N(C)C)CC3)C(=O)N3CCCC(N3)C(=O)OCC(C)(C)C2)C1	<	6.00
CCC(CC)c1cc(NC2CCC(N)C2)n2nccc2n1 (stereo not drawn) + CCn1c(-c2cccnc2C(C)OC)c2c3cc(ccc31)N1CCOC(CC(NC(=O)C(C(C)C)N(C)C(=O)C3(F)CCN(C(=O)C#CC(C)(C)N(C)C)CC3)C(=O)N3CCCC(N3)C(=O)OCC(C)(C)C2)C1	=	6.06

###

Each item that follows carries a reported viability, T/C.
System: K12877-001-R-J1-PDC complex spheroid viability
Test: Anticancer human tumor K12877-001-R-J1-PDC cell line growth inhibition [RAS];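 further: spheroids exposed to agents for one week before readout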;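 on viability, T/C: tumour cells co-cultured with HUVEC and mesenchymal stem cells in spheroids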
Conditions: second compound 0.0316 µM; first compound 0.000949 µM; stronger effect = lower value

molecule	system	viability, T/C [%]
CCc1c2c(nc3ccc(O)cc13)-c1cc3c(c(=O)n1C2)COC(=O)[C@]3(O)CC + C=CC(=O)N1CCN(c2nc(OCC3CCCN3C)nc3c(F)c(-c4nc(N)cc(C)c4C(F)(F)F)c(Cl)cc23)C(C)C1	K12877-001-R-J1-PDC complex spheroid viability	88.3
CC1(C)CCC(Nc2ncc(C(F)(F)F)c(-c3c[nH]c4c(P(C)(C)=O)c(C#N)ccc34)n2)CN1 (centres undefined) + C#Cc1c(F)ccc2cc(O)cc(-c3ncc4c(N5CC6CCC(C5)N6)nc(OCC56CCCN5CC(F)C6)nc4c3F)c12	K12877-001-R-J1-PDC complex spheroid viability	93.6
CCc1c2c(nc3ccc(O)cc13)-c1cc3c(c(=O)n1C2)COC(=O)[C@]3(O)CC + C#Cc1c(F)ccc2cc(O)cc(-c3ncc4c(N5CC6CCC(C5)N6)nc(OCC56CCCN5CC(F)C6)nc4c3F)c12	K12877-001-R-J1-PDC complex spheroid viability	109
CC1(C)CCC(Nc2ncc(C(F)(F)F)c(-c3c[nH]c4c(P(C)(C)=O)c(C#N)ccc34)n2)CN1 (centres undefined) + C=CC(=O)N1CCN(c2nc(OCC3CCCN3C)nc3c(F)c(-c4nc(N)cc(C)c4C(F)(F)F)c(Cl)cc23)C(C)C1	K12877-001-R-J1-PDC complex spheroid viability	87
